- TESTED ON: Uracil nucleotide/cysteinyl leukotriene receptor (Homo sapiens)
- Sequence (Q13304 whole entry): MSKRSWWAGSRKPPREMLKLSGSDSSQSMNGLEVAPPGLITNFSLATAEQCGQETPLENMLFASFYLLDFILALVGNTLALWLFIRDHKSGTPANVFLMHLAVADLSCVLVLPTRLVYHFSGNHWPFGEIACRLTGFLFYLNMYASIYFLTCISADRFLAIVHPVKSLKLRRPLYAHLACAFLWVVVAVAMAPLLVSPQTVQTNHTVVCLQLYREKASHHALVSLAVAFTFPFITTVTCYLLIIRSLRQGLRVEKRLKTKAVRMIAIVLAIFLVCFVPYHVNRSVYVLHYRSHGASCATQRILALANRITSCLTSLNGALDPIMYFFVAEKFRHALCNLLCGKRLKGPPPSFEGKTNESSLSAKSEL
- ASSAY: Agonist activity at human GPR17 expressed in human 1321N1 cells assessed as induction of calcium mobilization at >30 uM after 1 hr by Oregon Green BAPTA-1/AM dye-based fluorescence assay relative to control
- Format: functional, cell-based
RESULT TYPE: Activity (%)

O=C(O)CCc1c(C(=O)O)[nH]c2c(Cl)cc(Cl)c(Cl)c12; 16
O=C(O)CCc1c(C(=O)O)[nH]c2cc(Cl)c(Cl)cc12; 11
O=C(O)CCc1c(C(=O)O)[nH]c2ccc(F)cc12; 9
N[C@@H](Cc1c[nH]c2ccccc12)C(=O)O [TRYPTOPHAN]; 0

1: CN(C)CCc1c[nH]c2ccc(Cn3cncn3)cc12 [RIZATRIPTAN]
2: O=C(O)CCc1c(C(=O)O)[nH]c2c(Cl)cccc12
Kindly identify which of 1 and 2 has the larger recorded Activity value. Field: selected label. Fill in the label of the entry you choose.
2
(2: 5%, 1: 0%)
